Test system: L1210
run-description: Inhibition of murine L1210 leukemia cell proliferation measured by the MTT assay
Assay type: functional, cell-based
condition-context: Mus musculus
pIC50: −log10 of the molar value.
// Not satisfied strictly below 7 in pIC50; Satisfied otherwise

Given the entry `COC(=O)CCCC(=O)Oc1ccc2c(c1)c1cc3c(C(=O)NCCN(C)C)nccc3c(C)c1n2C` , answer whether its pIC50 meets or surpasses 7.
Satisfied

Given the entry `CCCCCCCCCCCCNC(=O)Oc1ccc2c(c1)c1cc3c(C(=O)NCCN(C)C)nccc3c(C)c1n2C` , answer whether its pIC50 meets or surpasses 7.
Not satisfied

Given the entry Cc1c2cc[n+](C)cc2c(C)c2c1[nH]c1ccc(O)cc12 [ELLIPTINIUM] , answer whether its pIC50 meets or surpasses 7.
Satisfied

Given the entry `CCOC(=O)CCNC(=O)Oc1ccc2c(c1)c1cc3c(C(=O)NCCN(C)C)nccc3c(C)c1n2C` , answer whether its pIC50 meets or surpasses 7.
Satisfied

Given the entry `Cc1c2ccnc(C(=O)NCCN(C)C)c2cc2c3cc(OC(=O)CCCCCCC(=O)O)ccc3n(C)c12` , answer whether its pIC50 meets or surpasses 7.
Satisfied

Given the entry `Cc1c2ccnc(C(=O)NCCN(C)C)c2cc2c3cc(OC(=O)CCCCCC(=O)O)ccc3n(C)c12` , answer whether its pIC50 meets or surpasses 7.
Satisfied

Given the entry `Cc1c2ccnc(C(=O)NCCN(C)C)c2cc2c3cc(OC(=O)N(C)C)ccc3n(C)c12` , answer whether its pIC50 meets or surpasses 7.
Not satisfied

Given the entry `Cc1c2ccnc(C(=O)NCCN(C)C)c2cc2c3cc(OC(=O)NCCCC(=O)OCc4ccccc4)ccc3n(C)c12` , answer whether its pIC50 meets or surpasses 7.
Not satisfied

Given the entry `Cc1c2ccnc(C(=O)NCCN(C)C)c2cc2c3cc(OS(C)(=O)=O)ccc3n(C)c12` , answer whether its pIC50 meets or surpasses 7.
Not satisfied

Given the entry `COc1ccc2c(c1)c1cc3c(C(=O)NCCN(C)C)nccc3c(C)c1n2C` , answer whether its pIC50 meets or surpasses 7.
Not satisfied

Given the entry `Cc1c2ccnc(C(=O)NCCN(C)C)c2cc2c3cc(OC(=O)CCC(=O)OCc4ccccc4)ccc3n(C)c12` , answer whether its pIC50 meets or surpasses 7.
Satisfied

Given the entry `Cc1c(O)ccc2c1c1cc3c(C(=O)NCCN(C)C)nccc3c(C)c1n2C` , answer whether its pIC50 meets or surpasses 7.
Satisfied

Given the entry `Cc1c2ccnc(C(=O)NCCN(C)C)c2cc2c3cc(OC(=O)N4CCOCC4)ccc3n(C)c12` , answer whether its pIC50 meets or surpasses 7.
Not satisfied

Given the entry `CCCCCCCCCCCCN(C)C(=O)Oc1ccc2c(c1)c1cc3c(C(=O)NCCN(C)C)nccc3c(C)c1n2C` , answer whether its pIC50 meets or surpasses 7.
Not satisfied

Given the entry `Cc1c2ccnc(C(=O)NCCN(C)C)c2cc2c3cc(OC(=O)NCCC(=O)O)ccc3n(C)c12` , answer whether its pIC50 meets or surpasses 7.
Not satisfied

Given the entry `Cc1c2ccnc(C(=O)NCCN(C)C)c2cc2c3cc(OC(=O)Cc4ccccc4)ccc3n(C)c12` , answer whether its pIC50 meets or surpasses 7.
Satisfied

Given the entry `Cc1c(OC(=O)CCCCC(=O)O)ccc2c1c1cc3c(C(=O)NCCN(C)C)nccc3c(C)c1n2C` , answer whether its pIC50 meets or surpasses 7.
Satisfied

Given the entry `CC(=O)Oc1ccc2c(c1)c1cc3c(C(=O)NCCN(C)C)nccc3c(C)c1n2C` , answer whether its pIC50 meets or surpasses 7.
Satisfied

Given the entry `Cc1c2ccnc(C(=O)NCCN(C)C)c2cc2c3cc(OC(=O)CC(C)(C)CC(=O)O)ccc3n(C)c12` , answer whether its pIC50 meets or surpasses 7.
Satisfied

Given the entry `Cc1c2ccnc(C(=O)NCCN(C)C)c2cc2c3cc(OP(=O)(O)O)ccc3n(C)c12` , answer whether its pIC50 meets or surpasses 7.
Satisfied

Given the entry `Cc1c2ccnc(C(=O)NCCN(C)C)c2cc2c3cc(OC(=O)N4CCC(N5CCCCC5)CC4)ccc3n(C)c12` , answer whether its pIC50 meets or surpasses 7.
Not satisfied

Given the entry `Cc1c2c(C(=O)NCCN(C)C)nccc2c(C)c2c1c1cc(OC(=O)CCCCC(=O)O)ccc1n2C` , answer whether its pIC50 meets or surpasses 7.
Satisfied

Given the entry `Cc1c2c(C(=O)NCCN(C)C)nccc2c(C)c2c1c1cc(O)ccc1n2C` , answer whether its pIC50 meets or surpasses 7.
Satisfied

Given the entry Cc1c2ccnc(C(=O)NCCN(C)C)c2cc2c3cc(OCC4C[C@@H]4c4ccccc4)ccc3n(C)c12 (stereo partly drawn) , answer whether its pIC50 meets or surpasses 7.
Not satisfied

Hey, just so you know, these numbers are from ChEMBL document CHEMBL1132144.
